Cited source: PubChem BioAssay

assay: small-molecule microarray binders of probe aCHRDL2, primary screen, biochemical, biotinylated probe, 635/667 nm fluorescence (AID 1100); details: higher = more signal
attribute.measured: composite z-score

{"columns": ["compound", "composite z-score"],
 "data": [
  ["CCCCCN1CC=CC23O[C@@H]4C=CCOC(=O)[C@@H]4[C@H]2C(=O)N(CCCCCO)[C@@H]3C1=O (stereo not given in full)", 0.398],
  ["CN(C)CCCNC(=O)[C@@H]1c2ccccc2C(=O)N(C2Cc3ccccc3C2)[C@H]1c1ccc(CO)cc1", 0.559]
]}

API: the following record is the query input.
composite z-score measured on C=CCC(OC(C)=O)[C@@H]1[C@@H](N(Cc2ccc(-c3ccccc3)cc2)C(=O)c2cccc3ccccc23)c2cc(OCCCO)ccc2N1C(=O)c1ccc2ccccc2c1 (stereo not given in full) = -0.0972
